Test system: PRKACA-PRKAR2A interaction (SmBiT-PRKACA / LgBiT-PRKAR2A), protein kinase A
Set-up: NanoLuc complementation counter-screen in cell extract, PRKACA with PRKAR2A, loss of luminescence, detects NanoLuc interference
Conditions: counter-screen for NanoLuc interference; 0.5 h, 20 µM; inhibitor
Known Inh (PKA) of a selection of molecules
Give the quantity in %, number only.

# Molecule, Inh (PKA) (%)
measured = [
    ("CC(C)(C#N)c1ccc(N2C(=O)OCc3cnc4ccc(-c5cnc6ccccc6c5)cc4c32)cc1 [UM0135469:02, ETP-46464]", 11.28),
]

### Prompt Give the measured Inh (PKA) for S=C(NCc1ccc2c(c1)OCO2)N1CCN(c2ncnc3c2oc2ccccc23)CC1 [UM0141771:01, Amuvatinib (MP-470, HPK 56)]
### Response 7.726

### Prompt Read off the recorded Inh (PKA) for COc1cccc2c1C(=O)c1c(O)c3c(c(O)c1C2=O)C[C@@](O)(C(=O)CO)C[C@@H]3O[C@H]1C[C@H](N)[C@H](O[C@@H]2CCCCO2)[C@H](C)O1 [UM0142479:01, Pirarubicin]
### Response 33.32

====

Test system: PRKACA-PRKAR2A interaction (SmBiT-PRKACA / LgBiT-PRKAR2A), protein kinase A
Set-up: NanoLuc complementation counter-screen in cell extract, PRKACA with PRKAR2A, loss of luminescence, detects NanoLuc interference
Conditions: counter-screen for NanoLuc interference; 0.5 h, 20 µM; inhibitor
Counter-ions that a name gives are not always drawn.
Measured Endpoint: Inh (PKA) (%)
Value expressed in %; do not type the unit.

A selection of reference data follows.
# Molecule, Target Under Test, Measured Endpoint, Unit Label, Result Value
measured = [
    ("O=C(c1cccc(Cl)c1F)N1CCN(Cc2cccc(Nc3nccs3)n2)CC1", "PRKACA-PRKAR2A interaction (SmBiT-PRKACA / LgBiT-PRKAR2A), protein kinase A", "Inh (PKA)", "%", 20.15),
    ("CC(C)(C(=O)c1cccnc1)c1cccnc1", "PRKACA-PRKAR2A interaction (SmBiT-PRKACA / LgBiT-PRKAR2A), protein kinase A", "Inh (PKA)", "%", 1.858),
    ("Cc1ccccc1C(C(=O)NC1CCCCC1)N(C(=O)Cn1ccnc1C)c1cccc(F)c1 (stereo not drawn)", "PRKACA-PRKAR2A interaction (SmBiT-PRKACA / LgBiT-PRKAR2A), protein kinase A", "Inh (PKA)", "%", 4.354),
]

### Prompt Give Inh (PKA) for the following molecule: `C[C@@H]1O[C@@H](O[C@H]2C[C@@H](O)[C@]3(CO)[C@H]4[C@H](O)C[C@]5(C)[C@@H](C6=CC(=O)OC6)CC[C@]5(O)[C@@H]4CC[C@]3(O)C2)[C@H](O)[C@H](O)[C@H]1O`
### Response 0.8032

### Prompt Give the reported Inh (PKA) for this molecule. CC(C)[C@H](N)C(=O)N1CCC[C@H]1B(O)O [UM0142552:01, Talabostat mesylate]
### Response -1.148

### Prompt Hello, please tell me recorded Inh (PKA) for this one: `COc1cc2ncnc(Nc3ccc(O)cc3)c2cc1OC`
### Response 3.268

### Prompt Using the record for `OC[C@H]1NC[C@H](O)[C@@H](O)[C@@H]1O` , state its measured Inh (PKA).
### Response 1.08

### Prompt Look up Inh (PKA) of `COc1cc2ncnc(Nc3ccc(F)c(Cl)c3)c2cc1NC(=O)/C=C/CN1CCCCC1` and report it.
### Response 10.53

### Prompt Please report the measured Inh (PKA) for `COc1cc(-n2c(=S)[nH]c3ccccc3c2=O)c(Cl)cc1Cl`
### Response 54.95

### Prompt Find the measured Inh (PKA) of `COc1cc2ncc(-c3ccccc3)nc2cc1OC` and report it.
### Response 8.299
